# METHOD_DESCRIPTION: Quantitative High-Throughput drug screen in 47 multiple myeloma cell lines against the NCATS MIPE library collection: NCIH929_DSMZ cell viability assay (AID 1918978); further: nearly all actives have a fitted effect of over 35% in size
# CONDITION_CONTEXT: NCI-H929 myeloma viability, CellTiter-Glo ATP, 48 h; series mostly up to 45.8 µM
Records with an inconclusive call do not appear. The source made the active and inactive calls. The call rests on the fitted dose curve; in most records, active means well fitted cell-killing curve with a large enough effect; inconclusive means small, poorly fitted or top-dose-only effect; inactive means no such curve, though single readings can be large or run the other way.
Classes used: y (active), n (inactive)

# COMPOUND_STRUCTURE, CATEGORY_LABEL
data = [
    ("Cc1nc(C(=O)NCC(=O)O)c(O)c2ccc(Oc3ccccc3)cc12", "n"),
    ("CC(=O)OCC(=O)[C@@]1(O)CC[C@H]2[C@@H]3CCC4=CC(=O)C=C[C@]4(C)[C@@H]3[C@@H](O)C[C@@]21C", "y"),
    ("CCC(=C(c1ccc(O)cc1)c1ccc(OCCNC)cc1)c1ccccc1", "y"),
    ("CC(C)C[C@@H](C(=O)N[C@H](C(=O)OC1CCCC1)c1ccccc1)[C@H](O)C(=O)NO", "y"),
    ("COc1ccc(-c2cc(=O)c3c(O)cc(O[C@@H]4O[C@H](CO[C@@H]5O[C@@H](C)[C@H](O)[C@@H](O)[C@@H]5O)[C@@H](O)[C@H](O)[C@@H]4O)cc3o2)cc1O", "y"),
    ("O=C(c1ccc(F)c(F)c1Nc1ccc(I)cc1F)N1CC(O)([C@H]2CCCCN2)C1", "y"),
    ("C[C@@H]1[C@H](C)CC[C@]2(C(=O)O)CC[C@]3(C)C(=CC[C@@H]4[C@@]5(C)CC[C@H](O)C(C)(C)[C@H]5CC[C@]43C)[C@@H]12", "n"),
    ("CN(C)N=Nc1nc[nH]c1C(N)=O", "n"),
]
